Data provenance is the supplement of paper PMC11208160.

- assayInfo: recombinant UMI read abundance after kanamycin selection (control-corrected) (log10(CPM+1)); higher = more efficient recombination; extreme values may be limits of the assay; sequences stand for … in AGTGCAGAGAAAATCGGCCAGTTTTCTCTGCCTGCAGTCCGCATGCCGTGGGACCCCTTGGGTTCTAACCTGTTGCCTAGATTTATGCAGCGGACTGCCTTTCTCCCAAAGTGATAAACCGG…AGGTTGGTTTCACT; site = the 11-nt donor
Please note: TRUE applies when recombinant UMI read abundance (log10) is 0.009 or greater, and FALSE applies otherwise.

stdin: Kindly determine if recombinant UMI read abundance (log10) recorded for ACCGTATCATGGACCGGTTTTCCCGGTAATCCGTATTTGCA (site ACAGTATCTTG) is above or exactly 0.009.
stdout: TRUE

stdin: API: above_or_equal(metric=recombinant UMI read abundance (log10), cutoff=0.009) for item CCCATATCATGGACCGGTTTTCCCGGTAATCCGTATTTGTG (site CCCATATCTCA)
stdout: TRUE

stdin: Does the sequence AGGAAGACATGGACCGGTTTTCCCGGTAATCCGTATTTGCT (site AGGAAGACTTG) have recorded recombinant UMI read abundance (log10) that is 0.009 or more?
stdout: TRUE

stdin: Could you please find out whether CTTAGAACATGGACCGGTTTTCCCGGTAATCCGTATTTGGC (site TTTAGAACTGC) has recombinant UMI read abundance (log10) that meets 0.009 or exceeds it?
stdout: FALSE

stdin: Kindly determine if recombinant UMI read abundance (log10) recorded for TGGAGTTCATGGACCGGTTTTCCCGGTAATCCGTATTTGTA (site TGGAGTTCTTA) is above or exactly 0.009.
stdout: TRUE

stdin: Hello, I need to know if GGGCGAACATGGACCGGTTTTCCCGGTAATCCGTATTTGGA (site GGGCGAACTTC) has measured recombinant UMI read abundance (log10) not below 0.009. Thanks!
stdout: TRUE

stdin: Reported recombinant UMI read abundance (log10) reaches at least 0.009 for CGAGGACCATGGACCGGTTTTCCCGGTAATCCGTATTTGCG (site CGAGGACCTCG) ?
stdout: FALSE

stdin: Does the sequence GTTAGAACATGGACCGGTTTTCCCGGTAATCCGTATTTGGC (site GTTAGATCTGC) have recorded recombinant UMI read abundance (log10) that is 0.009 or more?
stdout: TRUE

---

Answer each item with its documented recombinant barcode read abundance (log10).
- assayInfo: recombinant barcode read abundance after kanamycin selection (control-corrected) (log10(CPM+1)); higher = more efficient recombination; sequences stand for … in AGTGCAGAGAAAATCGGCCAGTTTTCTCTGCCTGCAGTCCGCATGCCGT…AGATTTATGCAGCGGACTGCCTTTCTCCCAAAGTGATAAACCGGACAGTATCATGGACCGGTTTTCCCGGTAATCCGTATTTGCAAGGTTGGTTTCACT; site = the 11-nt target
Enter the number alone.

stdin: What value of recombinant barcode read abundance (log10) has been recorded for this entry: GTCGGGTCTTGGGTTCTAACCTGTTGCCT (site GTCGGGTCTAG)
stdout: 1.47

stdin: Please look up its recombinant barcode read abundance (log10): AAGTGCTCTTGGGTTCTAACCTGTTGCCT (site AAGTGCTCTAG)
stdout: 2.34

stdin: Which recombinant barcode read abundance (log10) reading was recorded for the sequence CACTTGTCTTGGGTTCTAACCTGTTGCCT (site CACTTGTCTAG) ?
stdout: 1.7

stdin: recombinant barcode read abundance (log10) lookup needed for CTAATGACTTGGGTTCTAACCTGTTGCAC (site CTAATGCCTAT) , thanks.
stdout: 0.227

stdin: Consider the sequence GAGCCGGCTTGGGTTCTAACCTGTTGCTT (site GAGACGGCTAA) and give its measured recombinant barcode read abundance (log10).
stdout: 0.0584

stdin: Entry TACCTGACTTGGGTTCTAACCTGTTGCCT (site TACCGGACTAG) : reported recombinant barcode read abundance (log10) = ?
stdout: 0.106
